target: MshC D251A mutant (Mycolicibacterium smegmatis, UniProt A0QZY0, D251A)
parameterMeasured: Ki (nM)
API: value field is a number in nM; no unit string.

Exercise: Lab note: need Ki for Nc1ncnc2c1ncn2[C@@H]1O[C@H](COS(=O)(=O)NC(=O)[C@@H](N)CS)[C@@H](O)[C@H]1O [CSA, reference compound] on MshC D251A mutant (Mycolicibacterium smegmatis, UniProt A0QZY0, D251A), anyone have it?
Solution: 930

---

target: WT MshC (Mycolicibacterium smegmatis); experiment: Pre-steady state kinetics of cysteine adenylation; format: biochemical, Mycobacterium smegmatis; conditions: read-out: Kd-ATP; first half reaction, fit to eq 9
parameterMeasured: pKd
When answering, recall that pKd equals minus log10 of the concentration in mol/L, and write that number alone.

Exercise: Lab note: need pKd for Nc1ncnc2c1ncn2[C@@H]1O[C@H](COP(=O)(O)OP(=O)(O)OP(=O)(O)O)[C@@H](O)[C@H]1O on WT MshC (Mycolicibacterium smegmatis), anyone have it?
Solution: 2.77
